IC50 values for the molecules below.
Target: unphosphorylated PDGFRβ kinase (uPDGFRβ, Seq. ID No. 3) (Homo sapiens, UniProt P09619)
Sequence (P09619 557-1106): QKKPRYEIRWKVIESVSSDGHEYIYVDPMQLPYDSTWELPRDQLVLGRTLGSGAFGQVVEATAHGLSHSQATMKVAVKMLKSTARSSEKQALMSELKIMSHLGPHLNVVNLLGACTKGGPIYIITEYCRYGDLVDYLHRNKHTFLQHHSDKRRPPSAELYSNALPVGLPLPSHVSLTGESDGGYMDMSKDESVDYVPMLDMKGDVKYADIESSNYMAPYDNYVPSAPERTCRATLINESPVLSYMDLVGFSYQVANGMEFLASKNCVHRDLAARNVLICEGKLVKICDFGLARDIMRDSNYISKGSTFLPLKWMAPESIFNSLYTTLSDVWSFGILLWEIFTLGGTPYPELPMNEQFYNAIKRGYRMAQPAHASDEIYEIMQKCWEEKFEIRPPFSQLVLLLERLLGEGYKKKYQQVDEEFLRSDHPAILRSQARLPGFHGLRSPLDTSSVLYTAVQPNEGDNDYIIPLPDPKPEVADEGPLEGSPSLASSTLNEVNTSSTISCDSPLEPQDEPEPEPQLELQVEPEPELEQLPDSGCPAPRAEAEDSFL
Assay: biochemical
Settings: uPDGFRb, enzymatic assay, ATP 500 μM

{"Molecule": "Cn1cc(-c2cc(Oc3ccc(NC(=O)NC(=O)C4CCOCC4)nc3)ccn2)cn1 [Example 68]", "Target under test": "unphosphorylated PDGFRβ kinase (uPDGFRβ, Seq. ID No. 3) (Homo sapiens, UniProt P09619)", "IC50": "100 to 1000 nM"}
{"Molecule": "COC1(C(=O)NC(=O)Nc2cc(C)c(Oc3ccnc(-n4cnc(C)c4)c3)cn2)CCCC1 [Example 162]", "Target under test": "unphosphorylated PDGFRβ kinase (uPDGFRβ, Seq. ID No. 3) (Homo sapiens, UniProt P09619)", "IC50": "100 to 1000 nM"}
{"Molecule": "Cc1nc(NC(=O)NC(=O)C2CC(C)(C)C2)ccc1Oc1ccnc(-c2cnn(C)c2)c1 [Example 13]", "Target under test": "unphosphorylated PDGFRβ kinase (uPDGFRβ, Seq. ID No. 3) (Homo sapiens, UniProt P09619)", "IC50": "10 to 100 nM"}
{"Molecule": "COC(C)(C)C(=O)NC(=O)Nc1ccc(Oc2ccnc(-c3cn(C)cn3)c2)cn1 [Example 132]", "Target under test": "unphosphorylated PDGFRβ kinase (uPDGFRβ, Seq. ID No. 3) (Homo sapiens, UniProt P09619)", "IC50": "100 to 1000 nM"}

---

pIC50 values by entry
Target: unphosphorylated PDGFRβ kinase (uPDGFRβ, Seq. ID No. 3) (Homo sapiens, UniProt P09619)
Experiment: biochemical
Conditions: uPDGFRb, enzymatic assay, ATP 500 μM
pIC50: −log10 of the molar value.

{"Record smiles": "Cc1cc(NC(=O)NC(=O)C(C)C)ncc1Oc1ccnc(-c2cnn(C)c2)c1", "pIC50": "6.00 to 7.00"}
{"Record smiles": "Cc1nc(NC(=O)NC(=O)C(C)(C)C)ccc1Oc1ccnc(-c2ccc(C3CCN(C)CC3)cc2)c1", "pIC50": "6.00 to 7.00"}
{"Record smiles": "Cn1cc(-c2cc(Oc3ccc(NC(=O)NC(=O)C(C)(C)C(F)(F)F)nc3)ccn2)cn1", "pIC50": "7.00 to 8.00"}

---

Biological target: unphosphorylated c-KIT kinase (uKIT, Seq. ID no. 2) (Homo sapiens, UniProt P10721)
Sequence (P10721 with tags, fused parts or gaps): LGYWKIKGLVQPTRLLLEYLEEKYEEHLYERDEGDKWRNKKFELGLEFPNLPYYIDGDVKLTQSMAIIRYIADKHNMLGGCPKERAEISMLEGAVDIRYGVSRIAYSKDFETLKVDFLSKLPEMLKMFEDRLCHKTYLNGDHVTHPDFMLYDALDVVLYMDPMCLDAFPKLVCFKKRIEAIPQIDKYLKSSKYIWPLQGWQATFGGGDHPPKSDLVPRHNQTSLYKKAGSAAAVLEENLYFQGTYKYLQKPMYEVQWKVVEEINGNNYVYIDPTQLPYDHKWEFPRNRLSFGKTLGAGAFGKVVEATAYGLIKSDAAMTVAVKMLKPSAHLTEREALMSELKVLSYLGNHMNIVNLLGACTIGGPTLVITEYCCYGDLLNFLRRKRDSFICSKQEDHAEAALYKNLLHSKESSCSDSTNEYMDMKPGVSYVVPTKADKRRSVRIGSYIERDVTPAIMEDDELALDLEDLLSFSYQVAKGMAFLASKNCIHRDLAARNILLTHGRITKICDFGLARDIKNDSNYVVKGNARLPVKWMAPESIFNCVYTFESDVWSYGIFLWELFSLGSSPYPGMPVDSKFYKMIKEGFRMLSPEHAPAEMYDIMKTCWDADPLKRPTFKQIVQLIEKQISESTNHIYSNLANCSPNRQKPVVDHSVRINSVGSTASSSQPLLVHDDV
Assay: biochemical
Conditions: uKIT, enzymatic assay, ATP 2000 μM
pIC50: −log10 of the molar value.
Listed compounds paired with reported pIC50

{"Compound": "Cn1cc(-c2cc(Oc3ccc(NC(=O)NC(=O)C4CCOC4)nc3)ccn2)cn1 (stereo not drawn) [Example 66]", "pIC50": "6.00 to 7.00"}
{"Compound": "Cc1cn(-c2cc(Oc3ccc(NC(=O)NC(=O)C(C)(C)C)nc3)ccn2)cn1 [Example 99]", "pIC50": "< 6.00"}
{"Compound": "CC(C)(C)C(=O)NC(=O)Nc1ccc(Oc2ccnc(-c3ccc(C(F)(F)F)nc3)c2)cn1 [Example 94]", "pIC50": "< 6.00"}
{"Compound": "COC1(C(=O)NC(=O)Nc2ccc(Oc3ccnc(-n4cnc(C)c4)c3)cn2)CC1 [Example 143]", "pIC50": "6.00 to 7.00"}
{"Compound": "Cc1cn(-c2cc(Oc3ccc(NC(=O)NC(=O)C4CCOC4)nc3C)ccn2)cn1 (stereo not drawn) [Example 136]", "pIC50": "< 6.00"}
{"Compound": "Cn1cnc(-c2cc(Oc3ccc(NC(=O)NC(=O)C(C)(C)C)nc3)ccn2)c1 [Example 104]", "pIC50": "< 6.00"}
{"Compound": "Cn1cc(-c2cc(Oc3ccc(NC(=O)NC(=O)C4(C(F)(F)F)CCC4)nc3)ccn2)cn1 [Example 101]", "pIC50": "6.00 to 7.00"}
{"Compound": "Cc1ncc(-c2cc(Oc3ccc(NC(=O)NC(=O)C4(C)CCOCC4)nc3)ccn2)o1 [Example 163]", "pIC50": "6.00 to 7.00"}
{"Compound": "CCc1nc(NC(=O)NC(=O)C2(C)CCOCC2)ccc1Oc1ccnc(-c2cnn(C)c2)c1 [Example 167]", "pIC50": "< 6.00"}
{"Compound": "Cc1nc(NC(=O)NC(=O)C2(C(F)(F)F)CCC2)ccc1Oc1ccnc(-c2cnn(C)c2)c1 [Example 102]", "pIC50": "6.00 to 7.00"}
{"Compound": "CCC(=O)NC(=O)Nc1ccc(Oc2ccnc(-n3cnc(C)c3)c2)cn1 [Example 128]", "pIC50": "< 6.00"}
{"Compound": "Cc1cn(-c2cc(Oc3cnc(NC(=O)NC(=O)C(C)(C)C)cc3C)ccn2)cn1 [Example 148]", "pIC50": "7.00 to 8.00"}
{"Compound": "COC(C)(C)C(=O)NC(=O)Nc1ccc(Oc2ccnc(-c3ccc(C4CCN(C)CC4)cc3)c2)c(C)n1 [Example 133]", "pIC50": "7.00 to 8.00"}
{"Compound": "CCOC(C)(C)C(=O)NC(=O)Nc1ccc(Oc2ccnc(-c3cnn(C)c3)c2)c(C)n1 [Example 127]", "pIC50": "6.00 to 7.00"}
{"Compound": "Cn1cc(-c2cc(Oc3ccc(NC(=O)NC(=O)C4CC5(CCC5)C4)nc3)ccn2)cn1 [Example 31]", "pIC50": "> 8.00"}
{"Compound": "COC(C)(C)C(=O)NC(=O)Nc1ccc(Oc2ccnc(-c3ccc(C)nc3)c2)cn1 [Example 72]", "pIC50": "< 6.00"}
{"Compound": "Cc1nc(NC(=O)NC(=O)C2(C(F)(F)F)CC2)ccc1Oc1ccnc(-c2cnn(C)c2)c1 [Example 34]", "pIC50": "6.00 to 7.00"}
{"Compound": "COC1(C(=O)NC(=O)Nc2ccc(Oc3ccnc(-c4ccnc(C)c4)c3)cn2)CCCC1 [Example 168]", "pIC50": "6.00 to 7.00"}
{"Compound": "Cc1ccc(-c2cc(Oc3ccc(NC(=O)NC(=O)C(C)(C)C)nc3)ccn2)cn1 [Example 73]", "pIC50": "< 6.00"}
{"Compound": "C=CCn1cc(-c2cc(Oc3ccc(NC(=O)NC(=O)C(C)(C)OC)nc3)ccn2)cn1 [Example 172]", "pIC50": "6.00 to 7.00"}
{"Compound": "CCOC(C)(C)C(=O)NC(=O)Nc1ccc(Oc2ccnc(-c3ccnc(C)c3)c2)cn1 [Example 161]", "pIC50": "< 6.00"}
{"Compound": "COC(C)(C)C(=O)NC(=O)Nc1ccc(Oc2ccnc(-c3cnc(C)n3C)c2)cn1 [Example 139]", "pIC50": "< 6.00"}
{"Compound": "CCn1cc(-c2cc(Oc3ccc(NC(=O)NC(=O)C(C)(C)C)nc3C)ccn2)cn1 [Example 60]", "pIC50": "< 6.00"}
{"Compound": "Cn1cc(-c2cc(Oc3cnc(NC(=O)NC(=O)C(C)(C)C)nc3)ccn2)cn1 [Example 174]", "pIC50": "6.00 to 7.00"}
